Target: MAP kinase-interacting serine/threonine-protein kinase 2 (Homo sapiens)
Test: Inhibition of MNK2 (unknown origin) at 5 uM preincubated for 10 mins followed by substrate addition and measured after 60 mins by ADP-glo kinase assay relative to control
Conditions: time 70.0 min
# inhibition values compiled below
Give just the number in %; leave the unit off.

# example entries with known answers
{"chemical.structure": "O=C(C1CCCCC1)N1CCC(c2cc(-c3ccnc4[nH]ccc34)[nH]n2)CC1", "unit.spec": "%", "inhibition": 14.6}
{"chemical.structure": "c1ccc(Oc2cccc(CN3CCC(c4cc(-c5ccnc6[nH]ccc56)[nH]n4)CC3)c2)cc1", "unit.spec": "%", "inhibition": 73.5}
{"chemical.structure": "COc1ccc(C(=O)N2CCC(c3cc(-c4ccnc5[nH]ccc45)[nH]n3)CC2)cc1OC", "unit.spec": "%", "inhibition": 59.7}
{"chemical.structure": "COc1ccc(C(=O)N2CCC(c3cc(-c4ccnc5[nH]ccc45)[nH]n3)CC2)cc1", "unit.spec": "%", "inhibition": 54.7}
{"chemical.structure": "COC(=O)c1ccc(C(=O)N2CCC(c3cc(-c4ccnc5[nH]ccc45)[nH]n3)CC2)cc1", "unit.spec": "%", "inhibition": 53.4}
{"chemical.structure": "COc1ccc(CC(=O)N2CCC(c3cc(-c4ccnc5[nH]ccc45)[nH]n3)CC2)cc1", "unit.spec": "%", "inhibition": 4.2}

Prompt: Data request, read-out inhibition, for COC(=O)c1cccc(CN2CCC(c3cc(-c4ccnc5[nH]ccc45)[nH]n3)CC2)c1
Response: 70.9

Prompt: If you can, please state the reported inhibition value of CC(=O)N1CCC(c2cc(-c3ccnc4[nH]ccc34)[nH]n2)CC1 .
Response: 58

Prompt: Quick one: inhibition of Cc1ccc(C(=O)N2CCC(c3cc(-c4ccnc5[nH]ccc45)[nH]n3)CC2)cc1 ?
Response: 52.2

###

In this section we review reported inhibition values for a set of compounds.
Target: MAP kinase-interacting serine/threonine-protein kinase 2 (Homo sapiens)
Assay: Inhibition of MNK2 (unknown origin) at 5 uM preincubated for 10 mins followed by substrate addition and measured after 60 mins by ADP-glo kinase assay relative to control
Settings: time 70.0 min
Give just the numeric value; % need not be written.

Here is how some compounds turned out for inhibition.
{"chemical.structure": "O=C(C1CC1)N1CCC(c2cc(-c3ccnc4[nH]ccc34)[nH]n2)CC1", "inhibition, %": 42.5}
{"chemical.structure": "CC(=O)c1cccc(CN2CCC(c3cc(-c4ccnc5[nH]ccc45)[nH]n3)CC2)c1", "inhibition, %": 89}

Prompt: Which measured inhibition value corresponds to Cc1ccc(S(=O)(=O)N2CCC(c3cc(-c4ccnc5[nH]ccc45)[nH]n3)CC2)cc1 ?
Response: 6.9

Prompt: What measured inhibition goes with N#CCN1CCC(c2cc(-c3ccnc4[nH]ccc34)[nH]n2)CC1 ?
Response: 84.4

Prompt: // returns reported inhibition for input O=C(C1CCCC1)N1CCC(c2cc(-c3ccnc4[nH]ccc34)[nH]n2)CC1
Response: 44.4

Prompt: Sample COc1ccc(CN2CCC(c3cc(-c4ccnc5[nH]ccc45)[nH]n3)CC2)cc1OC — what was its inhibition?
Response: 66.1

Prompt: Name the reported inhibition value associated with the compound CC(=O)c1ccc(C(=O)N2CCC(c3cc(-c4ccnc5[nH]ccc45)[nH]n3)CC2)cc1
Response: 60.9

Prompt: Need inhibition, item O=C(Cc1ccccc1)N1CCC(c2cc(-c3ccnc4[nH]ccc34)[nH]n2)CC1
Response: 72.2

Prompt: Quick check: inhibition of O=C(C1CCC1)N1CCC(c2cc(-c3ccnc4[nH]ccc34)[nH]n2)CC1 ?
Response: 42.3

###

Target or system Rho-associated protein kinase 2 (Homo sapiens, UniProt O75116): recorded IC50 listed per item.

Prompt: What is its IC50 for Rho-associated protein kinase 2 (Homo sapiens, UniProt O75116)? Entry: Fc1ccc(CN2CCC(c3cc(-c4ccnc5[nH]ccc45)[nH]n3)CC2)cc1F
Response: 295 nM

Prompt: // lookup IC50 | system=Rho-associated protein kinase 2 (Homo sapiens, UniProt O75116) | key= O=C(c1ccc(F)c(F)c1)N1CCC(c2cc(-c3ccnc4[nH]ccc34)[nH]n2)CC1
Response: 907 nM

Prompt: Form field: IC50 recorded for O=C(c1ccc([N+](=O)[O-])cc1)N1CCC(c2cc(-c3ccnc4[nH]ccc34)[nH]n2)CC1 with Rho-associated protein kinase 2 (Homo sapiens, UniProt O75116) (enter value)
Response: 699 nM

Prompt: # get_value(readout= IC50, system= Rho-associated protein kinase 2 (Homo sapiens, UniProt O75116)) for Cc1cccc(CN2CCC(c3cc(-c4ccnc5[nH]ccc45)[nH]n3)CC2)c1
Response: > 5000 nM

Prompt: Which IC50 is reported with Rho-associated protein kinase 2 (Homo sapiens, UniProt O75116) for this entry: O=C(CC1CC1)N1CCC(c2cc(-c3ccnc4[nH]ccc34)[nH]n2)CC1 ?
Response: 787 nM

###

Molecular target: MAP kinase-interacting serine/threonine-protein kinase 1 (Homo sapiens, UniProt Q9BUB5)
Sequence (Q9BUB5 whole entry, looked up): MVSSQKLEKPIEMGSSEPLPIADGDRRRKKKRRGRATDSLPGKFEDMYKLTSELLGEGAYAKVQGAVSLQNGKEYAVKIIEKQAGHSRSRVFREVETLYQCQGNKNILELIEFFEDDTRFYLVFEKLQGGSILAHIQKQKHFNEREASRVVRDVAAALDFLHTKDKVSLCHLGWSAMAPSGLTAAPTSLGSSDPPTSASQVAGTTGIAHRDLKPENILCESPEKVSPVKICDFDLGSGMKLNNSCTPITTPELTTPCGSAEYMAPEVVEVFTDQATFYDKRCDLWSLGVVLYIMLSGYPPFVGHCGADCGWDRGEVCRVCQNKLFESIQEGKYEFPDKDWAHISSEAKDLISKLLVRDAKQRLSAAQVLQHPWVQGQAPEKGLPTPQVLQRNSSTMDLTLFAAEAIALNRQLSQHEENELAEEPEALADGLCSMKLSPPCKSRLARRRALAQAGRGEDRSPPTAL
Test: Inhibition of MNK1 (unknown origin) at 5 uM preincubated for 10 mins followed by substrate addition and measured after 60 mins by ADP-glo kinase assay relative to control
Details: time 70.0 min
measure.name: inhibition (%)
I only need the number, in %, no unit after it.

{"chemical.structure": "COC(=O)c1cccc(CN2CCC(c3cc(-c4ccnc5[nH]ccc45)[nH]n3)CC2)c1", "unit.spec": "%", "inhibition": 61.6}
{"chemical.structure": "COc1cccc(CN2CCC(c3cc(-c4ccnc5[nH]ccc45)[nH]n3)CC2)c1", "unit.spec": "%", "inhibition": 61.6}
{"chemical.structure": "O=C(c1ccc(F)cc1)N1CCC(c2cc(-c3ccnc4[nH]ccc34)[nH]n2)CC1", "unit.spec": "%", "inhibition": 61.1}
{"chemical.structure": "COc1cccc(C(=O)N2CCC(c3cc(-c4ccnc5[nH]ccc45)[nH]n3)CC2)c1", "unit.spec": "%", "inhibition": 52.5}
{"chemical.structure": "COc1cc(C(=O)N2CCC(c3cc(-c4ccnc5[nH]ccc45)[nH]n3)CC2)cc(OC)c1OC", "unit.spec": "%", "inhibition": 60.8}

Prompt: What value of measured inhibition is listed for Fc1cccc(CN2CCC(c3cc(-c4ccnc5[nH]ccc45)[nH]n3)CC2)c1 ?
Response: 69.9

###

Target: MAP kinase-interacting serine/threonine-protein kinase 2 (Homo sapiens) (UniProt Q9HBH9)
Sequence (Q9HBH9 whole entry, looked up): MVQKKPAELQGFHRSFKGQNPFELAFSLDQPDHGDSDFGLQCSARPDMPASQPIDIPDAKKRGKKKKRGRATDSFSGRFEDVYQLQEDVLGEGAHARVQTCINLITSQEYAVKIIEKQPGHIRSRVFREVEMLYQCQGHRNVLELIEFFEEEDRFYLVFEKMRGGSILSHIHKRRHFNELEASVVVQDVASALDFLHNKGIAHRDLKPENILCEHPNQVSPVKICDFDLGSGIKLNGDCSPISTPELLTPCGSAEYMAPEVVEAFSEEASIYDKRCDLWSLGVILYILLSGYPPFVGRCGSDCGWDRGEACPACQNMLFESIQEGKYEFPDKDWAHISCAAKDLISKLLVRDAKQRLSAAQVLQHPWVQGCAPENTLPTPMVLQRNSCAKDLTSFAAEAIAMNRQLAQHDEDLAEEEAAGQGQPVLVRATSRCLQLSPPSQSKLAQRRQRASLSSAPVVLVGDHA
Test: Inhibition of MNK2 (unknown origin) at 5 uM preincubated for 10 mins followed by substrate addition and measured after 60 mins by ADP-glo kinase assay relative to control
Settings: time 70.0 min
Decide by inhibition: equal to or exceeding 70% means Fulfilled, less means Not fulfilled.

Reference set (8 entries):
{"chemical.structure": "O=S(=O)(C1CC1)N1CCC(c2cc(-c3ccnc4[nH]ccc34)[nH]n2)CC1", "target.entity": "MAP kinase-interacting serine/threonine-protein kinase 2 (Homo sapiens) (UniProt Q9HBH9)", "assigned.label": "Fulfilled"}
{"chemical.structure": "COc1ccc(CN2CCC(c3cc(-c4ccnc5[nH]ccc45)[nH]n3)CC2)cc1", "target.entity": "MAP kinase-interacting serine/threonine-protein kinase 2 (Homo sapiens) (UniProt Q9HBH9)", "assigned.label": "Not fulfilled"}
{"chemical.structure": "Fc1ccc(CN2CCC(c3cc(-c4ccnc5[nH]ccc45)[nH]n3)CC2)cc1F", "target.entity": "MAP kinase-interacting serine/threonine-protein kinase 2 (Homo sapiens) (UniProt Q9HBH9)", "assigned.label": "Fulfilled"}
{"chemical.structure": "O=S(=O)(F)N1CCC(c2cc(-c3ccnc4[nH]ccc34)[nH]n2)CC1", "target.entity": "MAP kinase-interacting serine/threonine-protein kinase 2 (Homo sapiens) (UniProt Q9HBH9)", "assigned.label": "Fulfilled"}
{"chemical.structure": "O=C(c1ccc(Cl)cc1)N1CCC(c2cc(-c3ccnc4[nH]ccc34)[nH]n2)CC1", "target.entity": "MAP kinase-interacting serine/threonine-protein kinase 2 (Homo sapiens) (UniProt Q9HBH9)", "assigned.label": "Not fulfilled"}
{"chemical.structure": "c1ccc(CN2CCC(c3cc(-c4ccnc5[nH]ccc45)[nH]n3)CC2)cc1", "target.entity": "MAP kinase-interacting serine/threonine-protein kinase 2 (Homo sapiens) (UniProt Q9HBH9)", "assigned.label": "Fulfilled"}
{"chemical.structure": "O=C(c1ccc(F)cc1)N1CCC(c2cc(-c3ccnc4[nH]ccc34)[nH]n2)CC1", "target.entity": "MAP kinase-interacting serine/threonine-protein kinase 2 (Homo sapiens) (UniProt Q9HBH9)", "assigned.label": "Not fulfilled"}
{"chemical.structure": "COc1cccc(CN2CCC(c3cc(-c4ccnc5[nH]ccc45)[nH]n3)CC2)c1", "target.entity": "MAP kinase-interacting serine/threonine-protein kinase 2 (Homo sapiens) (UniProt Q9HBH9)", "assigned.label": "Not fulfilled"}

Prompt: Hello, I need to know if COc1cccc(CC(=O)N2CCC(c3cc(-c4ccnc5[nH]ccc45)[nH]n3)CC2)c1 has measured inhibition not below 70%. Thanks!
Response: Not fulfilled

Prompt: Say whether Cc1cccc(CN2CCC(c3cc(-c4ccnc5[nH]ccc45)[nH]n3)CC2)c1 shows inhibition of 70% or more.
Response: Fulfilled

Prompt: Test whether the compound O=C(c1ccc([N+](=O)[O-])cc1)N1CCC(c2cc(-c3ccnc4[nH]ccc34)[nH]n2)CC1 records inhibition of 70% or higher.
Response: Not fulfilled
